- ASSAY SYSTEM: HLA-B1301 (Homo sapiens, UniProt P01889, A65T/A93T/A95T/D138N/D201E/D98Y/E176V/E204Q/E69M/E70A/G107R/K202T/L105A/L119I/N104T/N87E/Q94N/R106L/R155S/R169L/R180L/S101N/S121R/S35A/S48T/T118I/V127L/V36M/Y140L/Y91S)
- ASSAY EXPLANATION: Competitive peptide binding assay, CIR-B1301
- ASSAY CONTEXT: HMy2.CIR-B1301 cells, reference Cy5-[…], class from inhibition at 5 and 15 μM, flow cytometry MFI; read-out: Binding affinity with HLA-B1301
Peptide text beside a SMILES is read from it.
IC50 by entry:

>  <MOLECULE>
CC(C)C[C@H](NC(=O)[C@H](CC(N)=O)NC(=O)[C@H](CCCCN)NC(=O)[C@@H](NC(=O)[C@H](CCCNC(=N)N)NC(=O)[C@H](CO)NC(=O)[C@H](Cc1ccc(O)cc1)NC(=O)[C@@H](NC(=O)[C@@H](N)Cc1ccc(O)cc1)C(C)C)C(C)C)C(=O)O [Epitope Y3] (H-YVYSRVKNL-OH; N-terminus and C-terminus assumed)

>  <ENDPOINT LABEL>
IC50

>  <VALUE OBSERVED>
> 15 µM

$$$$

Incoming: Entry CC(C)C[C@H](NC(=O)[C@H](CC(C)C)NC(=O)[C@H](CC(C)C)NC(=O)[C@H](C)NC(=O)[C@H](CC(C)C)NC(=O)[C@H](C)NC(=O)[C@H](C)NC(=O)[C@H](CC(=O)O)NC(=O)CN)C(=O)O [Epitope Y65] (H-GDAALALLL-OH; N-terminus and C-terminus assumed) has what IC50?
Outgoing: < 5 µM

Incoming: Entry CC(C)C[C@H](NC(=O)[C@H](CC(=O)O)NC(=O)[C@H](CCC(N)=O)NC(=O)[C@@H](NC(=O)[C@@H](N)CO)[C@@H](C)O)C(=O)N[C@@H](Cc1ccccc1)C(=O)N[C@@H](CC(C)C)C(=O)N1CCC[C@H]1C(=O)N[C@@H](Cc1ccccc1)C(=O)O [Epitope Y249] (H-STQDLFLPF-OH; N-terminus and C-terminus assumed) has what IC50?
Outgoing: > 15 µM

====

pIC50 by entry:
- ASSAY SYSTEM: HLA-B3501 (Homo sapiens, UniProt P01889, A329T/A93T/A95T/C349S/D201E/D98Y/E176V/E187L/E204Q/E69T/I218V/K202T/L119I/Q94N/R155S/R180L/S121R/S35A/S48A/T118I/V127L/V306I/V36M/Y140S/Y91F)
- ASSAY EXPLANATION: Competitive peptide binding assay, CIR-B3501
- ASSAY CONTEXT: HMy2.CIR-B3501 cells, reference Cy5-[…], class from inhibition at 5 and 15 μM, flow cytometry MFI; read-out: Binding affinity with HLA-B3501
pIC50: −log10 of the molar value. Peptide text beside a SMILES is read from it.

>  <COMPOUND>
CC(C)[C@H](NC(=O)[C@@H](NC(=O)[C@@H](N)Cc1ccccc1)C(C)C)C(=O)N[C@@H](CO)C(=O)N[C@H](C(=O)NCC(=O)N[C@@H](Cc1ccc(O)cc1)C(=O)N[C@@H](Cc1c[nH]cn1)C(=O)N[C@@H](Cc1ccccc1)C(=O)O)[C@@H](C)O [Epitope Y167] (H-FVVSTGYHF-OH; N-terminus and C-terminus assumed)

>  <ENDPOINT LABEL>
pIC50

>  <VALUE OBSERVED>
4.82 to 5.30

$$$$
>  <COMPOUND>
CC[C@H](C)[C@H](NC(=O)[C@H](C)NC(=O)[C@H](C)NC(=O)[C@H](CC(N)=O)NC(=O)CNC(=O)[C@H](CC(=O)O)NC(=O)[C@H](CCC(N)=O)NC(=O)[C@H](C)NC(=O)[C@@H](N)Cc1ccccc1)C(=O)O [Epitope Y246] (H-FAQDGNAAI-OH; N-terminus and C-terminus assumed)

>  <ENDPOINT LABEL>
pIC50

>  <VALUE OBSERVED>
< 4.82

$$$$
>  <COMPOUND>
CC[C@H](C)[C@H](NC(=O)[C@H](CC(C)C)NC(=O)[C@@H](N)CCC(=O)O)C(=O)N[C@@H](CCCNC(=N)N)C(=O)N[C@@H](CCC(N)=O)C(=O)NCC(=O)N[C@H](C(=O)N[C@@H](CC(=O)O)C(=O)N[C@@H](Cc1ccc(O)cc1)C(=O)O)[C@@H](C)O [Epitope Y162] (H-ELIRQGTDY-OH; N-terminus and C-terminus assumed)

>  <ENDPOINT LABEL>
pIC50

>  <VALUE OBSERVED>
< 4.82

$$$$
>  <COMPOUND>
CC(C)[C@H](NC(=O)[C@@H](N)Cc1ccccc1)C(=O)N[C@@H](CO)C(=O)N[C@@H](CC(N)=O)C(=O)NCC(=O)N[C@H](C(=O)N[C@@H](Cc1c[nH]cn1)C(=O)N[C@@H](Cc1c[nH]c2ccccc12)C(=O)N[C@@H](Cc1ccccc1)C(=O)O)[C@@H](C)O [Epitope Y250] (H-FVSNGTHWF-OH; N-terminus and C-terminus assumed)

>  <ENDPOINT LABEL>
pIC50

>  <VALUE OBSERVED>
< 4.82

$$$$
>  <COMPOUND>
CSCC[C@H](NC(=O)[C@H](CO)NC(=O)[C@H](CCCNC(=N)N)NC(=O)[C@@H](NC(=O)[C@H](CCCNC(=N)N)NC(=O)[C@H](C)NC(=O)[C@@H](N)Cc1ccccc1)[C@@H](C)O)C(=O)N[C@@H](Cc1c[nH]c2ccccc12)C(=O)N[C@@H](CO)C(=O)N[C@@H](Cc1ccccc1)C(=O)O [Epitope Y47] (H-FARTRSMWSF-OH; N-terminus and C-terminus assumed)

>  <ENDPOINT LABEL>
pIC50

>  <VALUE OBSERVED>
> 5.30

$$$$

Incoming: Entry CC[C@H](C)[C@H](NC(=O)[C@@H](NC(=O)[C@H](CC(C)C)NC(=O)[C@H](CC(N)=O)NC(=O)[C@H](Cc1c[nH]c2ccccc12)NC(=O)[C@H](CCC(N)=O)NC(=O)[C@H](CCC(=O)O)NC(=O)[C@@H](N)CC(C)C)C(C)C)C(=O)NCC(=O)O [Epitope Y215] (H-LEQWNLVIG-OH; N-terminus and C-terminus assumed) has what pIC50?
Outgoing: < 4.82

Incoming: Entry CC[C@H](C)[C@H](NC(=O)[C@H](C)NC(=O)[C@@H](N)CC(C)C)C(=O)N[C@@H](CC(C)C)C(=O)N[C@H](C(=O)N[C@@H](C)C(=O)N[C@@H](CC(C)C)C(=O)N[C@@H](CCCNC(=N)N)C(=O)N[C@@H](CC(C)C)C(=O)O)[C@@H](C)O [Epitope Y7] (H-LAILTALRL-OH; N-terminus and C-terminus assumed) has what pIC50?
Outgoing: 4.82 to 5.30

Incoming: Entry CC[C@H](C)[C@H](NC(=O)[C@@H](NC(=O)[C@H](CC(N)=O)NC(=O)[C@H](CCCNC(=N)N)NC(=O)[C@H](CCCCN)NC(=O)[C@@H](NC(=O)[C@H](Cc1ccc(O)cc1)NC(=O)[C@H](C)NC(=O)[C@@H](N)Cc1ccccc1)[C@@H](C)O)C(C)C)C(=O)O [Epitope Y276] (H-FAYTKRNVI-OH; N-terminus and C-terminus assumed) has what pIC50?
Outgoing: < 4.82

Incoming: Entry CC[C@H](C)[C@H](NC(=O)[C@@H](NC(=O)[C@H](CC(C)C)NC(=O)[C@H](CCC(=O)O)NC(=O)[C@H](CO)NC(=O)[C@H](CCC(=O)O)NC(=O)[C@@H](N)CC(C)C)C(C)C)C(=O)NCC(=O)N[C@@H](C)C(=O)N[C@H](C(=O)O)C(C)C [Epitope Y211] (H-LESELVIGAV-OH; N-terminus and C-terminus assumed) has what pIC50?
Outgoing: < 4.82

Incoming: Entry CC[C@H](C)[C@H](N)C(=O)N[C@@H](C)C(=O)N[C@@H](CCSC)C(=O)N[C@@H](C)C(=O)N[C@@H](CS)C(=O)N[C@@H](CC(C)C)C(=O)N[C@H](C(=O)NCC(=O)N[C@@H](CC(C)C)C(=O)O)C(C)C [Epitope Y253] (H-IAMACLVGL-OH; N-terminus and C-terminus assumed) has what pIC50?
Outgoing: < 4.82

Incoming: Entry CC(C)C[C@H](NC(=O)[C@H](CC(C)C)NC(=O)[C@H](C)NC(=O)[C@H](CCC(N)=O)NC(=O)[C@H](CCCNC(=N)N)NC(=O)[C@@H](NC(=O)[C@H](CCCNC(=N)N)NC(=O)[C@H](CCC(=O)O)NC(=O)CN)C(C)C)C(=O)O [Epitope Y202] (H-GERVRQALL-OH; N-terminus and C-terminus assumed) has what pIC50?
Outgoing: < 4.82

Incoming: Entry CSCC[C@H](NC(=O)[C@H](C)NC(=O)[C@H](CCC(=O)O)NC(=O)[C@H](Cc1ccc(O)cc1)NC(=O)[C@H](Cc1ccccc1)NC(=O)[C@H](CCC(=O)O)NC(=O)[C@@H]1CCCN1C(=O)[C@H](CCC(=O)O)NC(=O)[C@@H](N)Cc1c[nH]c2ccccc12)C(=O)O [Epitope Y200] (H-WEPEFYEAM-OH; N-terminus and C-terminus assumed) has what pIC50?
Outgoing: < 4.82
